assay.name: Antiinflammatory activity in mouse RAW264.7 cells assessed as inhibition of LPS-induced iNOS activity incubated for 30 mins prior to LPS challenge measured after 24 hrs by Griess assay
# pIC50 annotations
Notebook: values listed as pIC50 are -log10 of the concentration (mol/L).

Past entries and their recorded results:
O=c1sc2ccccc2n1CCCCCCN1CCN(CCCCCn2c(=O)sc3ccccc32)CC1    6.54
O=c1oc2ccccc2n1CCCCCN1CCN(CCCCCn2c(=O)oc3ccccc32)CC1    5.35
c1ccc2oc(SCCCCN3CCN(CCCCSc4nc5ccccc5o4)CC3)nc2c1    5.95
O=c1sc2ccccc2n1CCCCCN1CCN(CCn2c(=O)sc3ccccc32)CC1    5.35
O=c1sc2ccccc2n1CCCCCN1CCN(CCCCCn2c(=O)sc3ccccc32)CC1    6.39
O=c1sc2ccccc2n1CCCCCCN1CCN(CCn2c(=O)sc3ccccc32)CC1    5.46
O=c1oc2ccccc2n1CCCCCN1CCN(CCCCn2c(=O)oc3ccccc32)CC1    5.34
O=c1sc2ccccc2n1CCCCN1CCN(CCCn2c(=O)sc3ccccc32)CC1    5.35
O=c1oc2ccccc2n1CCCCCCN1CCN(CCCCCn2c(=O)oc3ccccc32)CC1    5.54
O=c1oc2ccccc2n1CCCCCCN1CCN(CCCCCCn2c(=O)oc3ccccc32)CC1    5.37

Data request: Can you look up the measured pIC50 of `O=c1sc2ccccc2n1CCCCCCN1CCN(CCCCCCn2c(=O)sc3ccccc32)CC1` for me?
Data returned: 6.55

Data request: Can you look up the measured pIC50 of `O=c1sc2ccccc2n1CCCCCCN1CCN(CCCn2c(=O)sc3ccccc32)CC1` for me?
Data returned: 5.59

Data request: Can you look up the measured pIC50 of `c1ccc2sc(SCCCCN3CCN(CCCCSc4nc5ccccc5s4)CC3)nc2c1` for me?
Data returned: 6.39

Data request: Can you look up the measured pIC50 of `O=c1oc2ccccc2n1CCCCCN1CCN(CCn2c(=O)oc3ccccc32)CC1` for me?
Data returned: 5.30

Data request: Can you look up the measured pIC50 of `O=c1sc2ccccc2n1CCCN1CCN(CCCn2c(=O)sc3ccccc32)CC1` for me?
Data returned: 5.34

Data request: Can you look up the measured pIC50 of `O=c1oc2ccccc2n1CCCCCN1CCN(CCCn2c(=O)oc3ccccc32)CC1` for me?
Data returned: 5.31

Data request: Can you look up the measured pIC50 of `O=c1sc2ccccc2n1CCCCCN1CCN(CCCn2c(=O)sc3ccccc32)CC1` for me?
Data returned: 5.59

* * *

assay.name: Antiinflammatory activity in mouse RAW264.7 cells assessed as inhibition of LPS-induced iNOS activity incubated for 30 mins prior to LPS challenge measured after 24 hrs by Griess assay
quantity.kind: pIC50
Notebook: values listed as pIC50 are -log10 of the concentration (mol/L).

Past entries and their recorded results:
O=c1sc2ccccc2n1CCCCCCN1CCN(CCCCn2c(=O)sc3ccccc32)CC1    6.29
O=c1oc2ccccc2n1CCCCCCN1CCN(CCCn2c(=O)oc3ccccc32)CC1    5.35
O=c1oc2ccccc2n1CCCCCCN1CCN(CCCCn2c(=O)oc3ccccc32)CC1    5.75

Now consider a different compound.
Data request: Can you look up the measured pIC50 of `O=c1oc2ccccc2n1CCCCCCN1CCN(CCn2c(=O)oc3ccccc32)CC1` for me?
Data returned: 5.33

Data credit: BindingDB's records for doi:10.1016/j.bmc.2015.04.057
